The values you see were collected from PubChem BioAssay (NCI).

# key: entry, value: TGI
system: NCI-H522 lung; experiment: NCI tumour cell line growth inhibition, 48 h

Example molecules with recorded TGI:
# molecule, observed.result
measured = [
    ("CC(=O)[C-](C(C)=O)c1ccccc1.CC(=O)[C-](C(C)=O)c1ccccc1.CC[O-].CC[O-].[Ti+4]", "> 100 µM"),
    ("C[C@]12C3CC[C@@]4(CO)C[C@]3(CCC1[C@](C)(C(=O)O)CC[C@@H]2O)CC4=O (stereo partly drawn)", "> 100 µM"),
    ("COc1ccc(N=Nc2ccc3oc(=O)c(C(=O)Nc4ccc(Cl)cc4)cc3c2)cc1", "> 10 µM"),
]

Let us examine a further case.
Quick check: TGI of COc1cc2ccc1OCc1cccc(n1)COc1ccc(cc1OC)C=Nc1ccc(cc1)-c1ccc(cc1)N=C2 ?
> 100 µM

###

test system: SNB-75 CNS; assay: NCI tumour cell line growth inhibition, 48 h
endpoint.label: TGI

Sample CC(=O)Oc1ccc(CO)cc1OC(C)=O — what was its TGI?
> 100 µM

Consider the compound shown here: Cc1[nH]nc2c1C(=O)C=C(N(CCO)c1ccccc1)C2=O What is its recorded TGI?
> 100 µM

Please report the recorded TGI for CSc1nc2c(c(O)c(C)c(=O)n2C2OCC(OC(C)=O)C(OC(C)=O)C2OC(C)=O)c(=O)n1C (stereo not drawn) .
> 100 µM

###

# Lookup of reported TGI keyed by entry
test system: HOP-92 NSCLC; assay: NCI tumour cell line growth inhibition, 48 h

Observe how each entry below is paired with its result.
# compound, system.name, TGI
records = [
    ("CN(NC(=O)/C(=C\\c1ccco1)NC(=O)c1ccccc1)c1cn[nH]c(=O)c1Cl", "HOP-92 NSCLC", "> 100 µM"),
    ("O=c1c2ccccc2[nH]c(=S)n1-c1ccc(N=Nc2cccc3cc(O)ccc23)cc1", "HOP-92 NSCLC", "> 100 µM"),
    ("CCC1(N=[N+]=[N-])C(=O)c2ccccc2N(c2ccccc2)C1=O (stereo not drawn)", "HOP-92 NSCLC", "> 100 µM"),
]

Notebook: pull reported TGI for HOP-92 NSCLC, entry BrC1=CC=C2NCCCCCCN=C3C=CC(Br)=CC=C3NCCCCCCN=C2C=C1
> 25.5 µM

GET /values?readout=TGI&system=HOP-92 NSCLC&item= CSCCC(NC(=O)OCc1ccccc1)P(=O)(O)c1ccccc1 (stereo not drawn)
> 100 µM

Tell me reported TGI for COc1cc2c([C@@H](OC(=O)c3ccccc3)c3ccc4c(c3)OCO4)nccc2c(OC)c1OC , tested with HOP-92 NSCLC.
> 100 µM

# returns recorded TGI (system: HOP-92 NSCLC) for CC1(C)CC(=O)C(=[N+]=[N-])C(=O)C1
> 100 µM

###

tested on: U251 CNS; assay: NCI tumour cell line growth inhibition, 48 h
Quick reference: TGI of the listed items.

# annotated cases, reported TGI shown
# compound, endpoint.label, observed.result
records = [
    ("S=C1N=C(Cl)/C(=C\\c2ccco2)N1", "TGI", "> 100 µM"),
    ("C/C(N=Nc1nc2ccccc2[nH]1)=C1/C=CC=CN1O", "TGI", "> 100 µM"),
    ("CS(=O)(=O)CCn1c(=O)c(Oc2ccc(F)cc2F)cc2cnc(NC3CCOCC3)nc21", "TGI", "> 25 µM"),
    ("[C-]#[N+][C@]12C(=O)[C@H](CCC1(C)C)C(C)(C)[C@H]1C(=O)N(C)c3cccc2c31", "TGI", "> 100 µM"),
    ("COC(=O)/C(=C/c1ccc(OC)cc1)NC(=O)c1ccccc1", "TGI", "> 100 µM"),
]

The record that follows has no TGI shown yet.
Would you mind telling me what TGI value was observed for CCc1cccc(C(C)CC)c1NC(=O)C(=O)C(CC(=O)Nc1ccc(Cl)c(Cl)c1)C(=O)OC (stereo unspecified) ?
> 100 µM
